I'd appreciate it if you could supply inhibition at 0.1 µM values for the items below.
Molecular target: recombinant human PAI-1 (Homo sapiens, UniProt P05121)
Sequence (P05121 24-402): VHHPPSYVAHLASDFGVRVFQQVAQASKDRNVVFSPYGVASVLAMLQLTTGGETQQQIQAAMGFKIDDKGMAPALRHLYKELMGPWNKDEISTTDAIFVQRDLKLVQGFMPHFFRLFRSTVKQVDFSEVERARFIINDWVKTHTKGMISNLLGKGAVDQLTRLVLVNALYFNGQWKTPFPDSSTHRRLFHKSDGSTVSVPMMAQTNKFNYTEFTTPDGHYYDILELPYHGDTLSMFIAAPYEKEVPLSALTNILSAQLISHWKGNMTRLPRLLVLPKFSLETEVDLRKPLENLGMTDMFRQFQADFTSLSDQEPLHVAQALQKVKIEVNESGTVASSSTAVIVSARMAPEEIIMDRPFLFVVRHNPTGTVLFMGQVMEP
Test: Test Example 2: Human PAI-1 Inhibitory Activity (pH 7.4 HEPES buffer, 10 minutes incubation with two-chain tPA)
Assay type: biochemical
Parameters: purchased Molecular Innovations, Inc
Settings: read-out: Inhibition Rate of PAI-1 Activity (%)
Procedure: 0.1 M HEPES, 0.1 M NaCl. 1 mM EDTA. 0.1 % Polyethylene glycol 8,000 (Hampton Research Corporation), 2 mM Dimethyldecylphoshine oxide [Apo-10] (Fluka Corporation)
One number for each entry, in %.

Examples with answers:
Asked: What value of inhibition at 0.1 µM has been recorded for this entry: CCCCC(Oc1cc(-c2ccc(OC(F)(F)F)cc2)ccc1OCCCCc1ccccc1)C(=O)O (stereo not drawn) [Compound 306]
Given back: 0

Asked: Proceed to CC(C)c1ccc(-c2ccc(/C=C/C(=O)O)c(Oc3ccc(C(C)(C)C)cc3)c2)cc1 [Compound 518]
Given back: 14

Asked: Proceed to CC(C)(C)c1ccc(CN(C(=O)C(=O)O)c2cccc(-c3ccc(OC(F)(F)F)cc3)c2)cc1 [Compound 130]
Given back: 0

For each entry beneath this line, provide reported inhibition at 0.1 µM.
1. CC(C)(C)c1ccc(Oc2ccc(-c3ccc(C(C)(C)C)cc3)cc2OCC(=O)O)cc1 [Compound 453]
2. CCCCCCCCCCCCCCCOc1ccc(-c2ccc(OC(F)(F)F)cc2)cc1N(CCCCc1ccccc1)C(=O)C(=O)O [Compound 375]

Given back:
[4, 73]

For each entry beneath this line, provide reported inhibition at 0.1 µM.
1. CCCOc1ccc(-c2ccc(OC(F)(F)F)cc2)cc1N(Cc1ccc(C(C)(C)C)cc1)C(=O)C(=O)O [Compound 188]
2. CC(C)(C)c1ccc(COc2c(OCC(=O)O)cccc2-c2ccc(OC(F)(F)F)cc2)cc1 [Compound 117]
3. CC(C)(C)c1ccc(CN(C(=O)C(=O)O)c2ccc(-c3ccc(OC(F)(F)F)cc3)cc2Cl)cc1 [Compound 147]

Given back:
1. 0
2. 2
3. 0

For each entry beneath this line, provide reported inhibition at 0.1 µM.
1. CCCCCOc1ccc(-c2ccc(OC(F)(F)F)cc2)cc1N(CCCCc1ccc(Cl)cc1)C(=O)C(=O)O [Compound 384]
2. CC(C)(C)c1ccc(Oc2ccc(-c3ccc(OC(F)(F)F)cc3)cc2N(CCCCc2ccccc2)C(=O)C(=O)O)cc1 [Compound 636]
3. O=C(O)C(=O)N(CCCCc1ccccc1)c1cc(-c2ccc(OC(F)(F)F)cc2)ccc1OCCC(F)(F)F [Compound 383]
4. CCCN(CC(=O)O)c1cc(-c2ccc(OC(F)(F)F)cc2)ccc1Oc1ccc(C(C)(C)C)cc1 [Compound 435]
5. CC(C)c1ccc(-c2ccc(CCC(=O)O)c(Oc3ccc(C(C)(C)C)cc3)c2)cc1 [Compound 519]
6. CCCCCOc1ccc(-c2ccc(OC(F)(F)F)cc2)cc1N(CC(=O)O)C(=O)CCCc1ccccc1 [Compound 682]

Given back:
0
2
2
12
1
2

For each entry beneath this line, provide reported inhibition at 0.1 µM.
1. CC(C)(C)c1ccc(COc2ccc(-c3ccc(OC(F)(F)F)cc3)cc2OCC(=O)O)cc1 [Compound 105]
2. CCCCN(CC(=O)O)c1ccc(-c2ccc(OC(F)(F)F)cc2)cc1Oc1ccc(C(C)(C)C)cc1 [Compound 533]

Given back:
1. 2
2. 25

For each entry beneath this line, provide reported inhibition at 0.1 µM.
1. CC(C)(C)c1ccc(CN(C(=O)C(=O)O)c2cc(-c3ccc(OC(F)(F)F)cc3)cc(C(F)(F)F)c2)cc1 [Compound 139]
2. CC(C)(C)c1ccc(CN(C(=O)C(=O)O)c2ccc(Oc3ccc(OC(F)(F)F)cc3)cc2C(F)(F)F)cc1 [Compound 174]
3. CC(C)c1ccccc1Oc1cc(-c2ccc(OC(F)(F)F)cc2)ccc1OCC(=O)O [Compound 513]

Given back:
1: 0; 2: 0; 3: 17

For each entry beneath this line, provide reported inhibition at 0.1 µM.
1. CC(C)(C)c1ccc(Oc2cc(Oc3ccc(OC(F)(F)F)cc3)ccc2CCC(=O)O)cc1 [Compound 90]
2. CCCCC(Oc1cc(-c2ccc(OC(F)(F)F)cc2)ccc1Oc1ccccc1)C(=O)O (stereo not drawn) [Compound 307]
3. CCCCCOc1cc(-c2ccc(OC(F)(F)F)cc2)ccc1CN(C(=O)C(=O)O)c1ccc(C(C)(C)C)cc1 [Compound 648]

Given back:
1. 4
2. 0
3. 4

For each entry beneath this line, provide reported inhibition at 0.1 µM.
1. CCN(CC)c1ccc(N(Cc2ccc(C(C)(C)C)cc2)C(=O)C(=O)O)cc1-c1ccc(OC(F)(F)F)cc1 [Compound 213]
2. CC(C)(C)c1ccc(C(c2ccccc2)N(C(=O)C(=O)O)c2ccc(-c3ccc(OC(F)(F)F)cc3)cc2)cc1 (stereo not drawn) [Compound 222]
3. CCCCc1ccc(CN(C(=O)C(=O)O)c2ccc(-c3ccc(C(C)(C)C)cc3)cc2)cc1 [Compound 206]
4. O=C(O)C(=O)N(CCCCc1ccccc1)c1cc(-c2ccc(OC(F)(F)F)cc2)ccc1OC1CCCCCC1 [Compound 659]
5. CC(C)(C)c1ccc(Oc2cc(Nc3ccc(OC(F)(F)F)cc3)ccc2CCC(=O)O)cc1 [Compound 532]
6. Cc1cc(C)cc(Oc2cc(-c3ccc(C(C)(C)C)cc3)ccc2CCC(=O)O)c1 [Compound 499]
7. CC(C)(C)c1ccc(Sc2cc(-c3ccc(OC(F)(F)F)cc3)ccc2CC(=O)O)cc1 [Compound 530]

Given back:
[0, 0, 3, 12, 12, 15, 17]

Asked: What value of inhibition at 0.1 µM has been recorded for this entry: O=C(O)CCc1ccc(-c2ccc(OC(F)(F)F)cc2)cc1OC(c1ccccc1)c1ccccc1 [Compound 507]
Given back: 6
